Sourced from patent US12521393B2

System: endogenous target monocytes in human PBMC
Test: PBMC ex vivo monocyte depletion flow cytometry assay (Example 200)
Assay type: cell-based
Settings: with anti-cotinine antibody (SEQ ID NO: 11/12), 18-24 hours, EC50 in molar, read-out: Ex Vivo Depletion Assay pEC50 (converted)
Exercise: state measured EC50 for each of the molecules provided.
Write it as a number; the unit nM goes unstated.

Lab note: CC(C)N(C)[C@@H]1CC[C@H](N2CC[C@H](Nc3ncnc4ccc(C(F)(F)F)cc34)C2=O)[C@H](NC(=O)[C@H]2CC[C@@H](NC(=O)CCOCCNC(=O)COCCNC(=O)[C@H]3CC(=O)N(C)[C@@H]3c3cccnc3)CC2)C1 [Example 98] gave EC50 of 0.398

Lab note: CC(C)N(C)[C@@H]1CC[C@H](N2CC[C@H](Nc3ncnc4ccc(C(F)(F)F)cc34)C2=O)[C@H](NC(=O)COCCNC(=O)CNC(=O)COCCOCCNC(=O)[C@H]2CC(=O)N(C)[C@@H]2c2cccnc2)C1 [Example 78] gave EC50 of 2.51

Lab note: CC(C)N(C)[C@@H]1CC[C@H](N2CC[C@H](Nc3ncnc4ccc(C(F)(F)F)cc34)C2=O)[C@H](NC(=O)[C@H]2CC[C@H](C3CCN(C(=O)CCOCCOCCNC(=O)[C@H]4CC(=O)N(C)[C@@H]4c4cccnc4)CC3)CC2)C1 [Example 73] gave EC50 of 100000

Lab note: CC(C)N(C)[C@@H]1CC[C@H](N2CC[C@H](Nc3ncnc4ccc(C(F)(F)F)cc34)C2=O)[C@H](NC(=O)[C@H]2CC[C@H](NC(=O)CCCO[C@H]3CC[C@@H](OCCNC(=O)[C@H]4CC(=O)N(C)[C@@H]4c4cccnc4)CC3)CC2)C1 [Example 4] gave EC50 of 1

Lab note: CC(C)N(C)[C@@H]1CC[C@H](N2CC[C@H](Nc3ncnc4ccc(C(F)(F)F)cc34)C2=O)[C@H](NC(=O)[C@H]2CC[C@H](NC(=O)CCCC(=O)NCCCOCCCNC(=O)[C@H]3CC(=O)N(C)[C@@H]3c3cccnc3)CC2)C1 [Example 19] gave EC50 of 0.794

Lab note: CN1C(=O)C[C@H](C(=O)NCCOCCOCCC(=O)N[C@H]2CC[C@@H](C(=O)N[C@@H]3C[C@H](NC(C)(C)C)CC[C@@H]3N3CC[C@H](Nc4ncnc5ccc(C(F)(F)F)cc45)C3=O)CC2)[C@H]1c1cccnc1 [Example 120] gave EC50 of 1.26

Lab note: CC(C)N(C)[C@@H]1CC[C@H](N2CC[C@H](Nc3ncnc4ccc(C(F)(F)F)cc34)C2=O)[C@H](NC(=O)[C@H]2CC[C@@H](NC(=O)CCOCCCOCCCNC(=O)[C@H]3CC(=O)N(C)[C@@H]3c3cccnc3)CC2)C1 [Example 197] gave EC50 of 1

Lab note: CC(C)N(C)[C@@H]1CC[C@H](N2CC[C@H](Nc3ncnc4ccc(C(F)(F)F)cc34)C2=O)[C@H](NC(=O)[C@H]2CC[C@H](NC(=O)CCO[C@H]3CC[C@@H](OCCNC(=O)[C@H]4CC(=O)N(C)[C@@H]4c4cccnc4)CC3)CC2)C1 [Example 114] gave EC50 of 2.51
